# assayed_target: HIPK1 (human) (UniProt Q86Z02)
# Sequence (Q86Z02 whole entry, looked up): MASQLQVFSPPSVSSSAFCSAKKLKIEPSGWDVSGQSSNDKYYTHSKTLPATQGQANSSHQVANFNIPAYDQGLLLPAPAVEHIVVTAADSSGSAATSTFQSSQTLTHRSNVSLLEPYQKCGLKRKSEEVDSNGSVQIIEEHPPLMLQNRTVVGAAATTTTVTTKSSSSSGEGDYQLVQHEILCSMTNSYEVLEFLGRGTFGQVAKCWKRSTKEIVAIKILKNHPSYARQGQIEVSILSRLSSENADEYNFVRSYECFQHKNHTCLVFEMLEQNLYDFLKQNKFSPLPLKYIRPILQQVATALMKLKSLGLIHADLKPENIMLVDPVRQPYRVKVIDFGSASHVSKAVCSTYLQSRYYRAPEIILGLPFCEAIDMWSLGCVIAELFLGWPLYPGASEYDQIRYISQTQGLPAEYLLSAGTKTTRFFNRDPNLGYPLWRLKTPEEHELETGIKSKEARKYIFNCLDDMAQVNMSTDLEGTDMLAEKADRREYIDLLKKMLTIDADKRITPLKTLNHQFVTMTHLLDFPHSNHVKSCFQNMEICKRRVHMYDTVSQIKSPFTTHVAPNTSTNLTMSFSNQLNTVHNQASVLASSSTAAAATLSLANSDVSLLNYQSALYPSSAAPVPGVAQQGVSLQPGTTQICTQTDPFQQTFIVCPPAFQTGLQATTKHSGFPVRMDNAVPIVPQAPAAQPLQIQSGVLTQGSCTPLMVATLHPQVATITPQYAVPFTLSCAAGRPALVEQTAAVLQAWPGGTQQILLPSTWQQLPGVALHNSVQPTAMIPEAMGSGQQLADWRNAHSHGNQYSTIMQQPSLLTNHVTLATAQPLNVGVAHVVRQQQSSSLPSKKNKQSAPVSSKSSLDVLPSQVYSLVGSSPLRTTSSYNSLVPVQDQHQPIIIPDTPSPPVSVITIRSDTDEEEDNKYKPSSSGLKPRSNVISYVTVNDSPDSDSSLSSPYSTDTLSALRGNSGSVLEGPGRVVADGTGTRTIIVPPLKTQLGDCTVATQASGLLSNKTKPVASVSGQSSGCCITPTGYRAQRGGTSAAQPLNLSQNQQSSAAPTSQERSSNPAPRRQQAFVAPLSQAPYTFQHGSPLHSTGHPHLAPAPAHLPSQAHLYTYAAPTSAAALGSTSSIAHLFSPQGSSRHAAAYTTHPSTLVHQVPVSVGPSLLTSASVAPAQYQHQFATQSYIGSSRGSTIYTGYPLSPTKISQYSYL
# protocol_summary: radiometric filter-binding kinase assay, Kinase HotSpot
# test_settings: compound 0.5 µM; ATP 10 µM
measurement_label: residual activity
Remember to put the unit after the number in your answer.

Please review the entries below; each comes with its answer.
NC(=O)c1cccc(-c2cc(Nc3ccc(OC(F)(F)F)cc3)ncn2)c1 :: 102%
Cc1nc(-c2ccccc2)c(-c2ccncc2)o1 :: 102%
O=C1NC(=O)c2c1c1c3ccccc3[nH]c1n1cncc21 :: 82.6%
Fc1ccc(-c2nc3n(c2-c2ccncc2)CCS3)cc1 :: 108%
COc1cc(Nc2c(C#N)cnc3cc(OCCCN4CCN(C)CC4)c(OC)cc23)c(Cl)cc1Cl :: 96.3%

// for each compound below, give its residual activity
1. Ic1cccc(CSc2nnc(-c3ccncc3)o2)c1
2. O=C1c2ccccc2-c2nc3nnnn3nc21
3. N#Cc1c[nH]c2c[nH]/c(=N\Cc3cccnc3)cc2/c1=N\c1ccc(F)c(Cl)c1

Result:
105%
99.3%
98.6%

// for each compound below, give its residual activity
1. COc1cc2ncnc(Nc3ccc(Oc4ccccc4)cc3)c2cc1OC
2. Cc1cccc(-c2nc(C(C)(C)C)[nH]c2-c2ccc3c(c2)OCO3)n1
3. CN(C)CCCn1cc(C2=C(c3c[nH]c4ccccc34)C(=O)NC2=O)c2ccccc21
4. Cc1cncc2cccc(S(=O)(=O)N3CCCN(C(=O)CN)C[C@H]3C)c12
5. CCCCc1c(-c2ccc(OC)cc2)[nH]c2nccnc12
6. COc1ccc(C(=O)Nc2sc3c(c2C(N)=O)CCCC3)cc1OC

Result:
1. 102%
2. 101%
3. 96.6%
4. 99.1%
5. 109%
6. 90.2%

// for each compound below, give its residual activity
1. COc1ccc(Cl)cc1NC(=O)Nc1cc(C)nc2ccccc12
2. c1ccc2c(-c3ccncc3)c[nH]c2c1

Result:
["97.2%", "97.4%"]

// for each compound below, give its residual activity
1. COc1ccc2c(c1)/C(=C/c1cnc[nH]1)C(O)=N2
2. CO[C@@H]1[C@H](N(C)C(=O)c2ccccc2)C[C@H]2O[C@]1(C)n1c3ccccc3c3c4c(c5c6ccccc6n2c5c31)C(=O)NC4
3. COc1cc2ncnc(Nc3ccc(OCc4ccccc4)cc3)c2cc1OC
4. Cn1c2ccccc2c2c3c(c4c5ccccc5n(CCC#N)c4c21)CNC3=O

Result:
["98.9%", "101%", "104%", "81.1%"]

The reported measurements were obtained from the kinase profiling compilation of Christmann-Franck et al. (2016).
